- Run Description: Visual observation of test solutions for deposition of crystals or white turbidity
- Format: physicochemical
- Parameters: key: +: turbidity found; −: no turbidity
- Test Parameters: after storage at 4° C. for 3 months; agent added 12 mM
Outcome Measure: turbidity (visual observation)

1. OCC1OC(OC2C(CO)OC(OCC3OC4OC5C(CO)OC(OC6C(CO)OC(OC7C(CO)OC(OC8C(CO)OC(OC9C(CO)OC(OC%10C(CO)OC(OC3C(O)C4O)C(O)C%10O)C(O)C9O)C(O)C8O)C(O)C7O)C(O)C6O)C(O)C5O)C(O)C2O)C(O)C(O)C1O (stereo not shown); −
2. OC[C@H]1O[C@@H]2O[C@H]3[C@H](O)[C@@H](O)[C@@H](O[C@H]4[C@H](O)[C@@H](O)[C@@H](O[C@H]5[C@H](O)[C@@H](O)[C@@H](O[C@H]6[C@H](O)[C@@H](O)[C@@H](O[C@H]7[C@H](O)[C@@H](O)[C@@H](O[C@H]1[C@H](O)[C@H]2O)O[C@@H]7CO)O[C@@H]6CO)O[C@@H]5CO)O[C@@H]4CO)O[C@@H]3CO [αCD, α-cyclodextrin, reference compound]; +
3. OCC1OC(OCC2OC3OC4C(CO)OC(OC5C(CO)OC(OC6C(CO)OC(OC7C(CO)OC(OC8C(CO)OC(OC2C(O)C3O)C(O)C8O)C(O)C7O)C(O)C6O)C(O)C5O)C(O)C4O)C(O)C(O)C1O (stereo not shown); −
4. OC[C@H]1O[C@@H]2O[C@H]3[C@H](O)[C@@H](O)[C@@H](O[C@H]4[C@H](O)[C@@H](O)[C@@H](O[C@H]5[C@H](O)[C@@H](O)[C@@H](O[C@H]6[C@H](O)[C@@H](O)[C@@H](O[C@H]7[C@H](O)[C@@H](O)[C@@H](O[C@H]8[C@H](O)[C@@H](O)[C@@H](O[C@H]9[C@H](O)[C@@H](O)[C@@H](O[C@H]1[C@H](O)[C@H]2O)O[C@@H]9CO)O[C@@H]8CO)O[C@@H]7CO)O[C@@H]6CO)O[C@@H]5CO)O[C@@H]4CO)O[C@@H]3CO [γCD, γ-cyclodextrin, reference compound]; +

###

- Target Entity: Inactive α-amylase (from swine pancreas) (Sus scrofa)
- Construct: α-amylase derived from the swine pancreas; from tissue; host or cells: swine pancreas
- Sequence (P00690 16-511): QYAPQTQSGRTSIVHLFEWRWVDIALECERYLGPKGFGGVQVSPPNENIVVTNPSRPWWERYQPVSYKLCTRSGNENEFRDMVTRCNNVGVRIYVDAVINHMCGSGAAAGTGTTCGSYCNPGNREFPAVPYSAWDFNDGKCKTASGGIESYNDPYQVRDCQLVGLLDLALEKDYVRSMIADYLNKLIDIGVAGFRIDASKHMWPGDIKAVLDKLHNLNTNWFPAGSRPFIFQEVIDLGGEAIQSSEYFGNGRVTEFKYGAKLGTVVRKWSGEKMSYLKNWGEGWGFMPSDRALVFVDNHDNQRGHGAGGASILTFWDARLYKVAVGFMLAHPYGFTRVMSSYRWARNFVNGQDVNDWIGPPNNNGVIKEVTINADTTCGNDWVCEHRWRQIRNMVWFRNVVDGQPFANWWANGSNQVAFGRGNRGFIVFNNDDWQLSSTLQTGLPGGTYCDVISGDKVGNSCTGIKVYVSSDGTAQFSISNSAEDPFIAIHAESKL
- Run Description: Residual activity of α-amylase in test enzyme solutions after storage
- Format: biochemical
- Test Parameters: after storage at 35° C. for 7 days; agent 12 mM
Outcome Measure: Residual activity (%)

1) OCC1OC(OCC2OC3OC4C(CO)OC(OC5C(CO)OC(OC6C(CO)OC(OC7C(CO)OC(OC8C(CO)OC(OC9C(CO)OC(OC2C(O)C3O)C(O)C9O)C(O)C8O)C(O)C7O)C(O)C6O)C(O)C5O)C(O)C4O)C(O)C(O)C1O (stereo not shown); 91.7
2) OCC1OC(OCC2OC3OC4C(CO)OC(OC5C(CO)OC(OC6C(CO)OC(OC7C(CO)OC(OC8C(CO)OC(OC2C(O)C3O)C(O)C8O)C(O)C7O)C(O)C6O)C(O)C5O)C(O)C4O)C(O)C(O)C1O (stereo not shown); 80.4
3) OCC1OC(OC2C(CO)OC(OCC3OC4OC5C(CO)OC(OC6C(CO)OC(OC7C(CO)OC(OC8C(CO)OC(OC9C(CO)OC(OC%10C(CO)OC(OC3C(O)C4O)C(O)C%10O)C(O)C9O)C(O)C8O)C(O)C7O)C(O)C6O)C(O)C5O)C(O)C2O)C(O)C(O)C1O (stereo not shown); 93.0
4) OCC1OC(OC2C(CO)OC(OCC3OC4OC5C(CO)OC(OC6C(CO)OC(OC7C(CO)OC(OC8C(CO)OC(OC9C(CO)OC(OC3C(O)C4O)C(O)C9O)C(O)C8O)C(O)C7O)C(O)C6O)C(O)C5O)C(O)C2O)C(O)C(O)C1O (stereo not shown); 82.3

###

- Run Description: Visual observation of test solutions for deposition of crystals or white turbidity
- Assay type: physicochemical
- Set-up: key: +: turbidity found; −: no turbidity
- Test Parameters: after storage at 4° C. for 3 months; agent added 12 mM
Outcome Measure: turbidity (visual observation)

1) OC[C@H]1O[C@@H]2O[C@H]3[C@H](O)[C@@H](O)[C@@H](O[C@H]4[C@H](O)[C@@H](O)[C@@H](O[C@H]5[C@H](O)[C@@H](O)[C@@H](O[C@H]6[C@H](O)[C@@H](O)[C@@H](O[C@H]7[C@H](O)[C@@H](O)[C@@H](O[C@H]8[C@H](O)[C@@H](O)[C@@H](O[C@H]1[C@H](O)[C@H]2O)O[C@@H]8CO)O[C@@H]7CO)O[C@@H]6CO)O[C@@H]5CO)O[C@@H]4CO)O[C@@H]3CO [βCD, β-cyclodextrin, reference compound]; +
2) OCC1OC(OCC2OC3OC4C(CO)OC(OC5C(CO)OC(OC6C(CO)OC(OC7C(CO)OC(OC8C(CO)OC(OC9C(CO)OC(OC2C(O)C3O)C(O)C9O)C(O)C8O)C(O)C7O)C(O)C6O)C(O)C5O)C(O)C4O)C(O)C(O)C1O (centres unmarked); −

###

- Run Description: Visual observation of test solutions for deposition of crystals or white turbidity
- Type: physicochemical
- Design: key: +: turbidity found; −: no turbidity
- Test Parameters: just after the preparation; agent added 6 mM
Outcome Measure: turbidity (visual observation)

1) OCC1OC(OCC2OC3OC4C(CO)OC(OC5C(CO)OC(OC6C(CO)OC(OC7C(CO)OC(OC8C(CO)OC(OC9C(CO)OC(OC2C(O)C3O)C(O)C9O)C(O)C8O)C(O)C7O)C(O)C6O)C(O)C5O)C(O)C4O)C(O)C(O)C1O (stereo not shown); −
2) OC[C@H]1O[C@@H]2O[C@H]3[C@H](O)[C@@H](O)[C@@H](O[C@H]4[C@H](O)[C@@H](O)[C@@H](O[C@H]5[C@H](O)[C@@H](O)[C@@H](O[C@H]6[C@H](O)[C@@H](O)[C@@H](O[C@H]7[C@H](O)[C@@H](O)[C@@H](O[C@H]8[C@H](O)[C@@H](O)[C@@H](O[C@H]1[C@H](O)[C@H]2O)O[C@@H]8CO)O[C@@H]7CO)O[C@@H]6CO)O[C@@H]5CO)O[C@@H]4CO)O[C@@H]3CO [βCD, β-cyclodextrin, reference compound]; +
3) OCC1OC(OC2C(CO)OC(OCC3OC4OC5C(CO)OC(OC6C(CO)OC(OC7C(CO)OC(OC8C(CO)OC(OC9C(CO)OC(OC3C(O)C4O)C(O)C9O)C(O)C8O)C(O)C7O)C(O)C6O)C(O)C5O)C(O)C2O)C(O)C(O)C1O (stereo not shown); −
4) OC[C@H]1O[C@@H]2O[C@H]3[C@H](O)[C@@H](O)[C@@H](O[C@H]4[C@H](O)[C@@H](O)[C@@H](O[C@H]5[C@H](O)[C@@H](O)[C@@H](O[C@H]6[C@H](O)[C@@H](O)[C@@H](O[C@H]7[C@H](O)[C@@H](O)[C@@H](O[C@H]8[C@H](O)[C@@H](O)[C@@H](O[C@H]9[C@H](O)[C@@H](O)[C@@H](O[C@H]1[C@H](O)[C@H]2O)O[C@@H]9CO)O[C@@H]8CO)O[C@@H]7CO)O[C@@H]6CO)O[C@@H]5CO)O[C@@H]4CO)O[C@@H]3CO [γCD, γ-cyclodextrin, reference compound]; +
5) OCC1OC(OCC2OC3OC4C(CO)OC(OC5C(CO)OC(OC6C(CO)OC(OC7C(CO)OC(OC8C(CO)OC(OC2C(O)C3O)C(O)C8O)C(O)C7O)C(O)C6O)C(O)C5O)C(O)C4O)C(O)C(O)C1O (stereo not shown); −
6) OCC1OC(OC2C(CO)OC(OCC3OC4OC5C(CO)OC(OC6C(CO)OC(OC7C(CO)OC(OC8C(CO)OC(OC9C(CO)OC(OC%10C(CO)OC(OC3C(O)C4O)C(O)C%10O)C(O)C9O)C(O)C8O)C(O)C7O)C(O)C6O)C(O)C5O)C(O)C2O)C(O)C(O)C1O (stereo not shown); −
7) OC[C@H]1O[C@@H]2O[C@H]3[C@H](O)[C@@H](O)[C@@H](O[C@H]4[C@H](O)[C@@H](O)[C@@H](O[C@H]5[C@H](O)[C@@H](O)[C@@H](O[C@H]6[C@H](O)[C@@H](O)[C@@H](O[C@H]7[C@H](O)[C@@H](O)[C@@H](O[C@H]1[C@H](O)[C@H]2O)O[C@@H]7CO)O[C@@H]6CO)O[C@@H]5CO)O[C@@H]4CO)O[C@@H]3CO [αCD, α-cyclodextrin, reference compound]; +
